- TARGET_OF_ASSAY: RIPK2 (KD)/XIAP (BIR2) (Homo sapiens, UniProt O43353)
- Sequence (O43353 1-310): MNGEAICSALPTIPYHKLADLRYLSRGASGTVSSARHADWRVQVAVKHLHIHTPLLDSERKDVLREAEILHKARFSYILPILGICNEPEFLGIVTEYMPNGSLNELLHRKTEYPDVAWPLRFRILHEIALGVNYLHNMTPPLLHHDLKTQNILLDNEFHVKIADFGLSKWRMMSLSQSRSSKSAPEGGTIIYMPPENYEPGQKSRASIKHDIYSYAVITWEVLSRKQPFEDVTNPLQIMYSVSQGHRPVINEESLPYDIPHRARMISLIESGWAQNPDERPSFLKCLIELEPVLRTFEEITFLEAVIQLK
- EXPERIMENTAL_DETAILS: RIPK2-XIAP binding competition PPI assay (TR-FRET)
- CONDITION: GST-RIPK2 / His-XIAP (BIR2)-avi, 120 min at 23° C.
What IC50 was measured for each of the following?

Challenge: State IC50 (RIPK2 (KD)/XIAP (BIR2) (Homo sapiens, UniProt O43353)) of `COc1cc2ncc(-c3cc(C(=O)N[C@H](C)c4ccccn4)n(C(C)C)n3)n2cc1S(=O)(=O)C(C)(C)C` .
Response given: < 10 nM

Challenge: State IC50 (RIPK2 (KD)/XIAP (BIR2) (Homo sapiens, UniProt O43353)) of `CNc1nccn2c(-c3cc(C(=O)N[C@H](C)c4ccccc4)n(C)n3)cnc12` .
Response given: > 1000 nM

Challenge: State IC50 (RIPK2 (KD)/XIAP (BIR2) (Homo sapiens, UniProt O43353)) of `COc1cc2ncc(-c3cc(C(=O)NCc4ccccc4C#N)n(C)n3)n2cc1S(=O)(=O)C(C)(C)C` .
Response given: 100 to 1000 nM
